RP-LC retention time: recorded values
assay: gradient 5% acetonitrile 3 min, to 50% in 2 min, to 85% in 15 min, held 3 min, 100 µL/min; conditions: column: Zorbax Extend-C18 2.1 x 50 mm; eluents: water / acetonitrile, 0.1% formic acid
Write down the numeric answer in s and omit the unit.

COMPOUND: O=C(CCn1cnc2c(-c3ccccc3)noc2c1=O)NCCCN1CCc2ccccc2C1
UNIT: s
RP-LC retention time: 679

COMPOUND: N#Cc1ccc(N2C=C(C(=O)N3CCOCC3)S(=O)(=O)c3ccc(F)cc32)cc1
UNIT: s
RP-LC retention time: 726

COMPOUND: Cc1[nH]c(=O)[nH]c(=O)c1S(=O)(=O)NC1CC2CCC1C2 (stereo not given)
UNIT: s
RP-LC retention time: 658

COMPOUND: CCc1ccc(CNC(=O)CN2C(=O)C3CCCCN3c3ccc(S(=O)(=O)N(C)C)cc32)cc1 (stereo not given)
UNIT: s
RP-LC retention time: 975

COMPOUND: CN(CCCNC(=O)C1CCCN(S(=O)(=O)c2ccc3c(ccn3C)c2)C1)Cc1ccccc1 (stereo not given)
UNIT: s
RP-LC retention time: 696

COMPOUND: CCOC(=O)c1c(S(=O)(=O)N2CCC(C(=O)Nc3ccccc3)CC2)c(C)n(C)c1C
UNIT: s
RP-LC retention time: 834

COMPOUND: Cc1ccc(-c2nnc(Cc3nc(-c4ccccc4C)no3)o2)cc1C
UNIT: s
RP-LC retention time: 842

COMPOUND: CCOc1ccc(CC(=O)NC2CCN(c3cc(-c4ccc(Cl)cc4)[nH]n3)C2)cc1OCC (stereo not given)
UNIT: s
RP-LC retention time: 803

Consider the compound "COCc1cc(=O)n(CC(=O)Nc2ccc(C)cc2)c(N)n1" . State its measured RP-LC retention time. 595

Using known records, supply RP-LC retention time for "CCc1ccccc1NC(=O)Cn1nc2cc(C)nc(Nc3ccc(F)cc3)n2c1=O" 1040

Check the records and state RP-LC retention time for "Cc1[nH]c(C(=O)N2CCC(CC(=O)NCc3ccc4c(c3)OCO4)CC2)c(C)c1C(=O)OC(C)C" 797

Fill in RP-LC retention time for record "CCc1ccc2[nH]c3c(c(=O)c2c1)CN(CC(=O)NCc1ccc(F)cc1)CC3" 626

Using the record for "C=CCn1c(=O)c2ccccc2n(Cc2nc(-c3cc(OC)c(OC)c(OC)c3)no2)c1=O" , state its measured RP-LC retention time. 948

Entry "O=C(Nc1ccccc1)Nc1ccccn1" needs its RP-LC retention time filled in; supply it. 736

Tell me its RP-LC retention time given "CN(CC(=O)NC1CCCC1)S(=O)(=O)c1c[nH]c(C(=O)N2CCCC2)c1" as the entry. 686

====

assay: gradient 5% acetonitrile 3 min, to 50% in 2 min, to 85% in 15 min, held 3 min, 100 µL/min; conditions: column: Zorbax Extend-C18 2.1 x 50 mm; eluents: water / acetonitrile, 0.1% formic acid
So basically: is RP-LC retention time under 700 s? Then Fulfilled. Not under? Then Not fulfilled.

Solved cases below.
COMPOUND: Cc1ccccc1NC(=O)C1CCCN(S(=O)(=O)c2cn(C(C)C)cn2)C1 (centres undefined)
ASSIGNED CATEGORY: Not fulfilled
--
COMPOUND: CCc1nc2cc(N3CCC(C(=O)NCCN4CCOCC4)CC3)cnc2nc1CC
ASSIGNED CATEGORY: Fulfilled
--
COMPOUND: COc1cccc(-c2noc(Cn3ccn(-c4ccc(Cl)cc4)c(=O)c3=O)n2)c1OC
ASSIGNED CATEGORY: Not fulfilled
--
COMPOUND: Cc1ccc(NC(=O)N2CCC(CCNC(=O)C3(c4ccccc4)CC3)CC2)cc1F
ASSIGNED CATEGORY: Not fulfilled
--
COMPOUND: O=C(CN1C(=O)NC2(CCCCC2)C1=O)NCc1ccccc1Cl
ASSIGNED CATEGORY: Not fulfilled
--
COMPOUND: CCN1CCN(c2nc(F)c3c(c2F)S(=O)(=O)CCN3CC2CCCO2)CC1 (centres undefined)
ASSIGNED CATEGORY: Fulfilled
--
COMPOUND: Cc1nnc2sc(-c3cccs3)nn2c1=O
ASSIGNED CATEGORY: Fulfilled
--
COMPOUND: CC(C)CCNC(=O)c1ccc2c(c1)CCCN2S(C)(=O)=O
ASSIGNED CATEGORY: Not fulfilled

State whether 700 s exceeds RP-LC retention time recorded for CC(NC(=O)c1ccco1)c1nc(-c2ccc(N3CCCCC3)cc2)no1 (centres undefined) . Not fulfilled

# strict comparison: is reported RP-LC retention time < 700 s? input = "CC(C)c1c(C2CCN(C(=O)c3cccc(Br)c3)CC2)noc1N" Not fulfilled

meta.source: the METLIN SMRT retention time set (Domingo-Almenara et al. 2019)
